# Test system: K-562 leukemia
# test_summary: NCI tumour cell line growth inhibition, 48 h
Entries and their TGI

CC[C@@]1(O)C(=O)OCc2c1cc1n(c2=O)Cc2c-1nc1cc3c(cc1c2C)OCO3 :: > 100 µM
CN(C)CCCNC(=O)c1cncnc1Nc1ccc(OCc2cccc(F)c2)c(Cl)c1 :: 3.73 µM
O=C1CC(O)(c2ccccc2)C(c2ccccc2)=C1c1ccccc1 (stereo not given) :: > 100 µM
C=C(C)[C@@H]1CC[C@]2(CO)CC[C@]3(C)[C@H](CC[C@@H]4[C@@]5(C)CCC(NCCc6ccc(O)cc6)C(C)(C)[C@@H]5CC[C@]43C)[C@@H]12 (stereo not given in full) :: 1.66 µM

As a next step, examine the compound that follows.
Entry COc1ccc(OC)c(CC(C)N)c1 (stereo not given) ; TGI = > 100 µM
